Kindly state log10 of CC50 at 72 h for each of the entries shown.
- measurementDescription: Cytotoxicity against African green monkey Vero cells assessed as reduction in cell viability after 72 hrs by MTT assay
- Assay type: cell-based
- testParameters: chlorocebus sabaeus
log10 CC50 at 72 h, µg/mL

// returns reported log10 of CC50 at 72 h for input CO/N=C1\C(=O)N(CCn2cc(CN3CCN(c4c(F)cc5c(=O)c(C(=O)O)cn(C6CC6)c5c4OC)CC3C)nn2)c2ccc(F)cc21 (configuration not stated)
0.89

# lookup: log10 of CC50 at 72 h of COc1c(N2CCN(Cc3cn(CCN4C(=O)C(=O)c5cc(F)ccc54)nn3)C(C)C2)c(F)cc2c(=O)c(C(=O)O)cn(C3CC3)c12 (configuration not stated)
2.10

Find the recorded log10 of CC50 at 72 h belonging to CO/N=C1\C(=O)N(CCn2cc(CN3CCN(c4c(F)cc5c(=O)c(C(=O)O)cn(C6CC6)c5c4OC)CC3C)nn2)c2ccc(Cl)cc21 (configuration not stated) and report it.
0.89

Given the entry CO/N=C1\C(=O)N(CCn2cc(CN3CCN(c4c(F)cc5c(=O)c(C(=O)O)cn(C6CC6)c5c4OC)CC3C)nn2)c2ccccc21 (configuration not stated) , report its measured log10 of CC50 at 72 h.
1.80

Quick one: log10 of CC50 at 72 h of COc1c(N2CCN(Cc3cn(CCN4C(=O)/C(=N\O)c5cc(C)ccc54)nn3)C(C)C2)c(F)cc2c(=O)c(C(=O)O)cn(C3CC3)c12 (configuration not stated) ?
1.80

Reported log10 of CC50 at 72 h for CO/N=C1\C(=O)N(CCn2cc(CN3CCN(c4c(F)cc5c(=O)c(C(=O)O)cn(C6CC6)c5c4OC)CC3C)nn2)c2ccc(C)cc21 (configuration not stated) : what is it?
1.49

Can you look up the measured log10 of CC50 at 72 h of COc1c(N2CCN(Cc3cn(CCN4C(=O)C(=O)c5cc(Cl)ccc54)nn3)C(C)C2)c(F)cc2c(=O)c(C(=O)O)cn(C3CC3)c12 (configuration not stated) for me?
1.80

Given the compound COc1c(N2CCN(Cc3cn(CCN4C(=O)C(=O)c5cc(C)ccc54)nn3)C(C)C2)c(F)cc2c(=O)c(C(=O)O)cn(C3CC3)c12 (configuration not stated) , what is its reported log10 of CC50 at 72 h?
2.40

Consider the compound shown here: COc1c(N2CCN(Cc3cn(CCN4C(=O)/C(=N\O)c5cc(Cl)ccc54)nn3)C(C)C2)c(F)cc2c(=O)c(C(=O)O)cn(C3CC3)c12 (configuration not stated) What is its recorded log10 of CC50 at 72 h?
1.49

Fill in: log10 of CC50 at 72 h of COc1c(N2CCN(Cc3cn(CCN4C(=O)C(=O)c5ccccc54)nn3)C(C)C2)c(F)cc2c(=O)c(C(=O)O)cn(C3CC3)c12 (configuration not stated) is ___
2.10

Which log10 of CC50 at 72 h reading was recorded for the compound COc1c(N2CCN(Cc3cn(CCN4C(=O)/C(=N\O)c5cc(F)ccc54)nn3)C(C)C2)c(F)cc2c(=O)c(C(=O)O)cn(C3CC3)c12 (configuration not stated) ?
0.89

Please give the measured log10 of CC50 at 72 h for this compound: COc1c(N2CCN(Cc3cn(CCN4C(=O)/C(=N\O)c5ccccc54)nn3)C(C)C2)c(F)cc2c(=O)c(C(=O)O)cn(C3CC3)c12 (configuration not stated)
2.40
